Tested on: Escherichia coli TOP10;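 further: peptides expressed intracellularly from a pBAD plasmid library in pooled LB shake-flask culture, induced with 0.3% L-arabinose, DNA abundance read by NGS, three biological replicates, DESeq2 with apeglm shrinkage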
Assay: shrunken log2 fold change of peptide-encoding DNA abundance (4.5 h post-induction vs induction); higher = less antimicrobial activity (less host growth inhibition)
Details: time post-induction: 4.5 h; library: site-saturation at positions 5, 18, 19, 20
ENDPOINT: shrunken log2 fold change
Answer using only a numeral; do not append any unit.

These solved cases illustrate the format of a correct answer.
RRIRHRPPRLPRPRPRPNHLPRP	-0.0856
RRIRQRPPRLPRPRPRPKAHPRP	0.0165
RRIRYRPPRLPRPRPRPMSWPRP	-0.0422
RRIRERPPRLPRPRPRPDSNPRP	-0.00994
RRIRARPPRLPRPRPRPFTHPRP	-0.113

[in] Enter reported shrunken log2 fold change observed with Escherichia coli TOP10 for "RRIRERPPRLPRPRPRPWWNPRP"
[out] -0.0135
